Cited source for all entries: patent US7482308B2

Test system: Sagittaria pygmaea Miq.
Assay: Test for residual effectiveness against paddy field weeds (Test Example 2)
Format: in vivo
Details: 60 g ai/ha; period of maintaining herbicidal effect of higher than 80%
From the text: In a green house a 1000 cm^2 pot was filled with paddy field soil and water was poured to a depth of about 2 to 3 cm. A prescribed, diluted solution of the above-mentioned Test Example 1, was applied to the surface of water. […]
Please go through the items and note down their period showing sufficient residual herbicidal effectiveness Sagittaria pygmaea.

Some solved cases for reference:
COc1cc(OC)nc(C(O)c2cccc(F)c2NS(=O)(=O)C(F)(F)F)n1 (stereo not shown) [Compound C-1, reference compound]; 1 week
COc1cc(OC)nc(C(O)c2cccc(F)c2NS(=O)(=O)C(F)F)n1 (stereo not shown); 3 week
COc1cc(OC)nc(Cc2cccc(Cl)c2NS(=O)(=O)C(F)F)n1; 4 week

Now let's try a different one.
Ask: Given the molecule COCc1cccc(C(O)c2nc(OC)cc(OC)n2)c1NS(=O)(=O)C(F)F (stereo not shown) [Compound C-2, reference compound] , write its reported period showing sufficient residual herbicidal effectiveness Sagittaria pygmaea.
Reply: 3 week
